Provide the reported koff of each item.
- tested-on: RSV F protein (immobilised antigen of Example 6.1) (respiratory syncytial virus)
- Sequence (P03420 26-524): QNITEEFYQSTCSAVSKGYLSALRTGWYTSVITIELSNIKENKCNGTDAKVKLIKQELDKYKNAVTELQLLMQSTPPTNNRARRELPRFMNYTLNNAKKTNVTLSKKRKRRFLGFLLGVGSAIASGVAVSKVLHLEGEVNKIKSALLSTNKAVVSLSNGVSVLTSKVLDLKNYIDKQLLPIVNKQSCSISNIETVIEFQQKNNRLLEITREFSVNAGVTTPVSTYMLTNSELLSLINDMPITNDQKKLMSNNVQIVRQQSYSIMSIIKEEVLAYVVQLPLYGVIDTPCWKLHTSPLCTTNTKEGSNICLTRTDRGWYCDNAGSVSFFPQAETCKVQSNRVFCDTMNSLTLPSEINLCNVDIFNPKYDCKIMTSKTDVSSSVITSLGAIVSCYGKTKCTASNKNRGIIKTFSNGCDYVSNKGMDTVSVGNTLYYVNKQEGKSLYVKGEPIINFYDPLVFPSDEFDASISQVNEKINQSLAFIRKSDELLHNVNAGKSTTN
- protocol-description: BIAcore
Give bare numbers, in s⁻¹.

Recorded results for 2 binders are shown here.
- binder: "A12a6 Fab (Fab, V domains shown, Fab) VH: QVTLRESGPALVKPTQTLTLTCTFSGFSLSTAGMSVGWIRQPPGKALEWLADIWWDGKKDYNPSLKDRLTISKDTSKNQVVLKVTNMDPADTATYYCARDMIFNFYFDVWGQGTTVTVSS VL: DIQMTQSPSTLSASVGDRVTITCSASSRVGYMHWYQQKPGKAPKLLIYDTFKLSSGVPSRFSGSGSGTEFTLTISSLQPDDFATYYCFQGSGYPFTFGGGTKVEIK"
  value-observed: 0.00023
- binder: "A13a11 Fab (Fab, V domains shown, Fab) VH: QVTLRESGPALVKPTQTLTLTCTFSGFSLSTAGMSVGWIRQPPGKALEWLADIWWDDKKHYNPSLKDRLTISKDTSKNQVVLKVTNMDPADTATYYCARDMIFNWYFDVWGQGTTVTVSS VL: DIQMTQSPSTLSASVGDRVTITCSPSSRVGYMHWYQQKPGKAPKLLIYDTYRHSSGVPSRFSGSGSGTEFTLTISSLQPDDFATYYCFQGSGYPFTFGGGTKVEIK"
  value-observed: 0.00025

## Input Which koff is listed for 1X-493L1FR Fab (Fab, V domains shown, also called IX-493L1FR) VH: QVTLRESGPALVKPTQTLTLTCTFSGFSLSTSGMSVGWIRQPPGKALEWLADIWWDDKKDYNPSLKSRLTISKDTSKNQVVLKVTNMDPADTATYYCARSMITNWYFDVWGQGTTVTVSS VL: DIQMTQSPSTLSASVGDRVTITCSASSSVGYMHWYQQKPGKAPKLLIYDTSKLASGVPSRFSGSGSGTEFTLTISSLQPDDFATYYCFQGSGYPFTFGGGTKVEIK ?
## Output 0.00065

These entries and their values trace back to patent US20100098708A1.
